Tested on: NOMO-1
Test: cell viability (% survival relative to DMSO control, bortezomib = 0%); higher = less cytotoxic
Conditions: 10000 nM; 72 h
ENDPOINT NAME: cell viability (%)
Numeric answer only, unit % assumed.

COMPOUND: CCn1c(=Cc2cccc[n+]2CC)sc(=C2Sc3ccccc3N2C)c1=O
TARGET ENTITY: NOMO-1
cell viability, %: 95.2

Attention now turns to another entry.
# lookup: NOMO-1 cell viability, key = N#Cc1ccc(N(Cc2ccc(Br)cc2)n2cnnc2)cc1
96.2

* * *

Below is a list of entries, each paired with its recorded cell viability value.
Tested on: K-562
Assay: cell viability (% survival relative to DMSO control, bortezomib = 0%); higher = less cytotoxic
Details: 10000 nM; 72 h
// units = %; emit number, no label

Consider the following illustrative entries.
COMPOUND: N#C/C(=C\c1ccc(O)cc1)C(=O)O [alpha-cyano-4-hydroxycinnamic acid]
TARGET ENTITY: K-562
ENDPOINT NAME: cell viability
READOUT NUMBER: 91

COMPOUND: Cc1c(Cl)cccc1S(=O)(=O)Nc1nc(CC(=O)N2CCN(C)CC2)cs1
TARGET ENTITY: K-562
ENDPOINT NAME: cell viability
READOUT NUMBER: 102

COMPOUND: CCc1c(C(=O)C(N)=O)c2c(OCC(=O)O)cccc2n1Cc1ccccc1
TARGET ENTITY: K-562
ENDPOINT NAME: cell viability
READOUT NUMBER: 99.9

COMPOUND: Cc1ccc(-c2cc(C(F)(F)F)nn2-c2ccc(S(N)(=O)=O)cc2)cc1
TARGET ENTITY: K-562
ENDPOINT NAME: cell viability
READOUT NUMBER: 78.4

COMPOUND: O=C(/C=C/c1ccc(O)c(O)c1)OCCc1ccccc1
TARGET ENTITY: K-562
ENDPOINT NAME: cell viability
READOUT NUMBER: 48.5

COMPOUND: N#Cc1ccc(N(Cc2ccc(Br)cc2)n2cnnc2)cc1
TARGET ENTITY: K-562
ENDPOINT NAME: cell viability
READOUT NUMBER: 99.3

COMPOUND: CN1CCN(CCCN2c3ccccc3Sc3ccc(C(F)(F)F)cc32)CC1
TARGET ENTITY: K-562
ENDPOINT NAME: cell viability
READOUT NUMBER: 0.986

COMPOUND: C[C@H]1c2cccc(O)c2C(=O)C2C(=O)[C@]3(O)C(=O)C(C(N)=O)C(=O)[C@@H](N(C)C)[C@@H]3[C@@H](O)[C@@H]21 (stereo partly specified)
TARGET ENTITY: K-562
ENDPOINT NAME: cell viability
READOUT NUMBER: 46.2

For O=c1c(-c2ccc(O)cc2)coc2cc(O[C@@H]3O[C@H](CO)[C@@H](O)[C@H](O)[C@H]3O)ccc12 , write its cell viability.
106

Hello, please tell me recorded cell viability for this one: Cn1cc(-c2ccncc2)c(-c2ccc(OCc3ccc4ccccc4n3)cc2)n1
57.9

Tell me measured cell viability for CCCCCOC(=O)Nc1nc(=O)n([C@@H]2O[C@H](C)[C@@H](O)[C@H]2O)cc1F please.
93.3

* * *

Tested on: K-562
Test: cell viability (% survival relative to DMSO control, bortezomib = 0%); higher = less cytotoxic
Conditions: 100 nM; 72 h
ENDPOINT NAME: cell viability

COMPOUND: Cc1cccc(Nc2cc(Cl)nc(SCC(=O)O)n2)c1C [Pirinixic acid]
TARGET ENTITY: K-562
cell viability: 102%

Recall and state the measured cell viability for CCc1c(C(=O)C(N)=O)c2c(OCC(=O)O)cccc2n1Cc1ccccc1 [Varespladib] .
110%

Output measured cell viability for this item: Cc1c2c(=O)n(-c3ccccc3Cl)[nH]c2cc(=O)n1Cc1ccccn1
89.3%

Fill in reported cell viability for this entry: O=C(/C=C/c1ccc(O)c(O)c1)OCCc1ccccc1 [Caffeic acid phenethyl ester]
97.8%

Assign cell viability to the following record: CCCCCCCC/C=C\CCCCCCCC(=O)Nc1ccccc1 [Octadec-9-Enoic Acid Phenylamide]
95.8%

For the compound c1cc(-c2cnn3cc(-c4ccc(OCCN5CCCCC5)cc4)cnc23)ccn1 [Dorsomorphin] , give its reported cell viability.
93.3%

Return value of cell viability for input O=c1cc(N2CCOCC2)oc2c(-c3ccccc3)cccc12 , no commentary.
90.3%

Give the measured cell viability for OC[C@H]1O[C@@H](n2cnc3c2N=CNC[C@H]3O)C[C@@H]1O [Pentostatin]
111%

* * *

Tested on: myeloid leukemia patient primary cells Pat.13
Assay: area under dose-response curve (viability, 1 nM-10 uM) (fraction (0-1)); higher = more sensitive
Settings: 72 h
Consider the following compounds and their measured area under dose-response curve readings.

Take a look at these entries with their results.
COMPOUND: CCN(CC)C(=S)SSC(=S)N(CC)CC
ENDPOINT NAME: area under dose-response curve
RESULT: 0.412

COMPOUND: CN1CCN(CCCN2c3ccccc3Sc3ccc(C(F)(F)F)cc32)CC1
ENDPOINT NAME: area under dose-response curve
RESULT: 0.182

COMPOUND: O=c1cc(N2CCOCC2)oc2c(-c3ccccc3)cccc12
ENDPOINT NAME: area under dose-response curve
RESULT: 0.0372

COMPOUND: O=C(O)CC[N+](=O)[O-]
ENDPOINT NAME: area under dose-response curve
RESULT: 0.0548

COMPOUND: CO[C@H]1C[C@@H]2CC[C@@H](C)[C@@](O)(O2)C(=O)C(=O)N2CCCC[C@H]2C(=O)O[C@H]([C@H](C)C[C@@H]2CC[C@@H](OCCO)[C@H](OC)C2)CC(=O)[C@H](C)/C=C(\C)[C@@H](O)[C@@H](OC)C(=O)[C@H](C)C[C@H](C)/C=C/C=C/C=C/1C
ENDPOINT NAME: area under dose-response curve
RESULT: 0.0367

COMPOUND: Cc1cc2c(C(C)C)c(O)c(O)c(C=O)c2c(O)c1-c1c(C)cc2c(C(C)C)c(O)c(O)c(C=O)c2c1O
ENDPOINT NAME: area under dose-response curve
RESULT: 0.107

COMPOUND: C=CCN(C)CCCCCCOc1ccc(C(=O)c2ccc(Br)cc2)c(F)c1.O=C(O)/C=C/C(=O)O [Ro 48-8071 fumarate]
ENDPOINT NAME: area under dose-response curve
RESULT: 0.0673

COMPOUND: C[C@]12C=CC(=O)C=C1CC[C@@H]1[C@@H]2[C@@H](O)C[C@@]2(C)[C@H]1CC[C@]2(O)C(=O)CO
ENDPOINT NAME: area under dose-response curve
RESULT: < 0.0301

# return area under dose-response curve for CC(=O)Nc1nc(C)c(-c2ccc(Cl)c(S(=O)(=O)NCCO)c2)s1 , test system: myeloid leukemia patient primary cells Pat.13
0.214

* * *

Tested on: myeloid leukemia patient primary cells Pat.4
Assay: cell viability (% survival relative to DMSO control); higher = less cytotoxic
Details: 10 nM; 72 h
// boundary case: cell viability equal to 90% maps to label 0; strictly smaller maps to label 1

STRUCTURE STRING: CN1CCN(CCCN2c3ccccc3Sc3ccc(C(F)(F)F)cc32)CC1
LABEL CLASS: label 0

Is the reported cell viability for CC(=O)Nc1nc(C)c(-c2ccc(Cl)c(S(=O)(=O)NCCO)c2)s1 strictly below 90%?
label 1

* * *

Tested on: BV-173
Assay: cell viability (% survival relative to DMSO control, bortezomib = 0%); higher = less cytotoxic
Conditions: 1000 nM; 72 h
Structures can show the parent of a compound that is named as a salt.
Recorded cell viability by entry
Reply with just the number (in %).

// known answers, use as guide
MOLECULE: O=C(Nc1ccccc1)c1cc([N+](=O)[O-])ccc1Cl
cell viability, %: 91.8
//
MOLECULE: CN(Cc1cnc2nc(N)nc(N)c2n1)c1ccc(C(=O)N[C@@H](CCC(=O)O)C(=O)O)cc1 [Methotrexate]
cell viability, %: 1.64

In one line, give reported cell viability of the entry CCCCCN(C)CCC(O)(P(=O)(O)O)P(=O)(O)O [Ibandronate] .
120

Return cell viability (reported value) for this molecule: CCN(CCO)CCCC(C)Nc1ccnc2cc(Cl)ccc12 (configuration not stated) [Hydroxychloroquine sulfate]
84.3

Write down cell viability measured for item O=c1cc(-c2ccccc2)oc2c1ccc1ccccc12
111

Identify measured cell viability corresponding to C[C@H]1c2cccc(O)c2C(=O)C2C(=O)[C@]3(O)C(=O)C(C(N)=O)C(=O)[C@@H](N(C)C)[C@@H]3[C@@H](O)[C@@H]21 (some centres not stated)
102

* * *

// reported IC50 (cell viability) for each item listed
System: Mono-Mac-6
Conditions: 72 h

COMPOUND: COc1ccc2c(NC(=O)Nc3cccc(C(F)(F)F)n3)ccnc2c1
TARGET ENTITY: Mono-Mac-6
RESULT: > 10 µM
--
COMPOUND: CN(Cc1cnc2nc(N)nc(N)c2n1)c1ccc(C(=O)N[C@@H](CCC(=O)O)C(=O)O)cc1 [Methotrexate]
TARGET ENTITY: Mono-Mac-6
RESULT: 0.00826 µM
--
COMPOUND: C[C@]12C=CC(=O)C=C1CC[C@@H]1[C@@H]2[C@@H](O)C[C@@]2(C)[C@H]1CC[C@]2(O)C(=O)CO [Prednisolone]
TARGET ENTITY: Mono-Mac-6
RESULT: > 10 µM
--
COMPOUND: CC(C)CC(=O)N[C@H](C(=O)N[C@H](C(=O)N[C@@H](CC(C)C)[C@@H](O)CC(=O)N[C@@H](C)C(=O)N[C@@H](CC(C)C)[C@@H](O)CC(=O)O)C(C)C)C(C)C [Pepstatin A]
TARGET ENTITY: Mono-Mac-6
RESULT: > 10 µM
--
COMPOUND: CCCCCN(C)CCC(O)(P(=O)(O)O)P(=O)(O)O [Ibandronate]
TARGET ENTITY: Mono-Mac-6
RESULT: > 10 µM

Read off the recorded IC50 (cell viability) for CCN(CC)C(=S)SSC(=S)N(CC)CC [Disulfiram]
0.171 µM

// Input: Cn1cc(-c2ccncc2)c(-c2ccc(OCc3ccc4ccccc4n3)cc2)n1 . Output its IC50 (cell viability) only.
> 10 µM

Hello, please tell me recorded IC50 (cell viability) for this one: O=c1c(-c2ccc(O)cc2)coc2cc(O[C@@H]3O[C@H](CO)[C@@H](O)[C@H](O)[C@H]3O)ccc12 [Daidzin]
> 10 µM

Give the value of IC50 (cell viability) reported for the following: CCn1c(=Cc2cccc[n+]2CC)sc(=C2Sc3ccccc3N2C)c1=O [MKT 077]
> 10 µM

Please list IC50 (cell viability) recorded for the compound Cc1[nH]nc(C(F)(F)F)c1Cc1sc2c(c1C(=O)N1C[C@](C)(O)CO1)c(=O)n(C)c(=O)n2C(C)C [AZD3965]
> 10 µM

// Input: O=C1C(SCCO)=C(SCCO)C(=O)c2ccccc21 . Output its IC50 (cell viability) only.
0.664 µM

Give the measured IC50 (cell viability) for N#Cc1ccc(N(Cc2ccc(Br)cc2)n2cnnc2)cc1 [YM511]
> 10 µM

Read off the recorded IC50 (cell viability) for CO[C@H]1C[C@@H]2CC[C@@H](C)[C@@](O)(O2)C(=O)C(=O)N2CCCC[C@H]2C(=O)O[C@H]([C@H](C)C[C@@H]2CC[C@@H](OC(=O)C(C)(CO)CO)[C@H](OC)C2)CC(=O)[C@H](C)/C=C(\C)[C@@H](O)[C@@H](OC)C(=O)[C@H](C)C[C@H](C)/C=C/C=C/C=C/1C [Temsirolimus]
0.00487 µM
